Assay read-out pIC50 on Neprilysin (Rattus norvegicus); records merged from the literature.
pIC50: −log10 of the molar value.
Output Fulfilled for pIC50 not less than 8; output Not fulfilled otherwise.

* O=C(N[C@@H](Cc1ccc(-c2ccccn2)cc1)C(=O)O)[C@@H](CS)Cc1ccccc1 | Fulfilled
* CCC(C)[C@@H](C(=O)O)N1CC(=O)N(C(CS)Cc2ccccc2)C1=O (some centres unmarked) | Not fulfilled
* O=C(N[C@@H](Cc1ccc(-c2nccs2)cc1)C(=O)O)C(CS)Cc1ccco1 (some centres unmarked) | Fulfilled
* O=C(O)Cn1c(=O)n(C(CS)Cc2ccccc2)c(=O)n1C1CCCC1 (centres unmarked) | Not fulfilled
* O=C(O)CN1C(=O)N(C(CS)Cc2ccccc2)C(=O)C1C1c2ccccc2-c2ccccc21 (centres unmarked) | Not fulfilled
* O=C(N[C@@H](Cc1ccc(-c2ccsc2)cc1)C(=O)O)[C@@H](CS)Cc1ccccc1 | Fulfilled
* O=C(O)CN1C(=O)N(C(CS)Cc2ccccc2)C(=O)C1c1ccc(O)cc1 (centres unmarked) | Not fulfilled
* O=C(O)CN1CC(=O)N(C(CS)Cc2ccccc2)C1=O (centres unmarked) | Not fulfilled
* O=C(N[C@@H](Cc1ccc(-c2cnccn2)cc1)C(=O)O)[C@@H](CS)Cc1ccccc1 | Fulfilled
* CC(C)CC(CS)C(=O)N[C@@H](Cc1ccc(-c2nccs2)cc1)C(=O)O (some centres unmarked) | Fulfilled
* O=C(N[C@@H](Cc1ccc(-c2cncnc2)cc1)C(=O)O)[C@@H](CS)Cc1ccccc1 | Fulfilled
* O=C(N[C@@H](Cc1ccc(-c2cccs2)cc1)C(=O)O)[C@@H](CS)Cc1ccccc1 | Fulfilled
* O=C(O)[C@H](Cc1ccccc1)N1CC(=O)N(C(CS)Cc2ccccc2)C1=O (some centres unmarked) | Not fulfilled
* O=C(N[C@@H](Cc1ccc(-c2nccs2)cc1)C(=O)O)C(CS)Cc1cccnc1 (single isomer, unassigned) | Not fulfilled
* CC(C)Oc1ccc(C2C(=O)N(C(CS)Cc3ccccc3)C(=O)N2CC(=O)O)cc1 (centres unmarked) | Not fulfilled
* CC(C)[C@@H](C(=O)O)N1CC(=O)N(C(CS)Cc2ccccc2)C1=O (some centres unmarked) | Not fulfilled
* CC(C)CC(CS)N1C(=O)N(CC(=O)O)C2(CCCC2)C1=O (centres unmarked) | Not fulfilled
* CC(C)CC(CS)N1C(=O)CN(CC(=O)O)C1=O (centres unmarked) | Not fulfilled
* O=C(O)CN1C(=O)N(C(CS)Cc2ccccc2)C(=O)C12Cc1ccccc1C2 (centres unmarked) | Not fulfilled
* CC(C)C[C@H](NC(=O)[C@@H](CC(=O)O)Cc1ccccc1)C(=O)O | Not fulfilled
* O=C(O)CN1C(=O)N(C(CS)Cc2ccccc2)C(=O)C12CCCC2 (centres unmarked) | Not fulfilled
